# assay.explanation: Acute toxicity test in mice by single administration
# Assay type: in vivo, ICR mice
# condition.description: both sexes, ICR, mouse, in vivo, po; acute toxicity, mice, single gavage; read-out: Maximum tolerated dose (MTD)
parameter: MTD at 14 days

compound | endpoint.value
CNC(=O)c1ccc2c(cc1=O)[C@@H](NC(C)=O)CCc1cc(OC)c(OC)c(OC)c1-2 [Compound 48] | > 600 mg/kg
CCNC(=O)c1ccc2c(cc1=O)[C@@H](NC(C)=O)CCc1cc(OC)c(OC)c(OC)c1-2 [Compound 55] | > 600 mg/kg
COc1cc2c(c(OC)c1OC)-c1ccc(OC)c(=O)cc1[C@@H](NC(C)=O)CC2 [colchicine, reference compound] | < 50 mg/kg
COc1cc2c(c(OC)c1OC)-c1ccc(C(=O)Nc3ccccc3)c(=O)cc1[C@@H](NC(C)=O)CC2 [Compound 58] | > 600 mg/kg
COC(=O)c1ccc2c(cc1=O)[C@@H](NC(C)=O)CCc1cc(OC)c(OC)c(OC)c1-2 [Compound 34] | > 600 mg/kg

====

Parameter Decreased IL-6 percentage %: see the listing below.
# System: IL-6
# assay.explanation: Inflammatory factor experiment A: IL-6 in gouty arthritis rats
# Type: in vivo, SD rats
# condition.description: synovial tissue of knee joints; dose 0.6 mg/kg gavage; day 10
parameter: Decreased IL-6 percentage % (%)

molecule | unit.annotation | endpoint.value
COc1cc2c(c(OC)c1OC)-c1cc(Br)c(OC)c(=O)cc1[C@@H](NC(C)=O)CC2 [Compound 14] | % | 119.58
COc1cc2c(c(OC)c1OC)-c1ccc(OC3CCOC3)c(=O)cc1[C@@H](NC(C)=O)CC2 (stereo partly shown) [Compound 26] | % | 113.37
COc1cc2c(c(OC)c1OC)-c1cc(C)c(=O)c(OC)cc1[C@@H](NC(C)=O)CC2 [Compound 17] | % | 132.54
COc1cc2c(c(OC)c1OC)-c1ccc(OC)c(=O)cc1[C@@H](NC(C)=O)CC2 [colchicine, reference compound] | % | 107.14

====

Some molecules, each annotated with its measured Gait Score.
# Test system: gouty arthritis in rats (urate crystals, left ankle joint)
# assay.explanation: Pharmacodynamics experiment A on gouty arthritis in rats: gait score
# Assay type: in vivo, SD rats
# Set-up: scale not given here
# condition.description: 48 h after modeling; 0.6 mg/kg gavage; Mean ± SEM
parameter: Gait Score

molecule | endpoint.value
COc1cc2c(c(OC)c1OC)-c1ccc(NS(C)(=O)=O)c(=O)cc1[C@@H](NC(C)=O)CC2 | 1.00
COc1cc2c(c(OC)c1OC)-c1cc(C)c(=O)c(OC)cc1[C@@H](NC(C)=O)CC2 | 1.10
COc1cc2c(c(OC)c1OC)-c1ccc(OC3CCOC3)c(=O)cc1[C@@H](NC(C)=O)CC2 (some centres unmarked) | 1.10
COc1cc2c(c(OC)c1OC)-c1ccc(=O)c(OC3CCOC3)cc1[C@@H](NC(C)=O)CC2 (some centres unmarked) | 1.00
COc1cc2c(c(OC)c1OC)-c1ccc(OC)c(=O)cc1[C@@H](NC(C)=O)CC2 [colchicine, reference compound] | 1.00

====

# System: gouty arthritis rats (sodium urate, right ankle and knee joint cavities)
# assay.explanation: Pharmacodynamics experiment B on gouty arthritis rats: gait score
# Assay type: in vivo, SD rats
# condition.description: 48 h; dose 0.6 mg/kg gavage; mean

compound | Gait Score
COC(=O)c1cc2c(cc(=O)c1OC)[C@@H](NC(C)=O)CCc1cc(OC)c(OC)c(OC)c1-2 [Compound 40] | 0
COc1cc2c(c(OC)c1OC)-c1ccc(C(=O)N3CCOCC3)c(=O)cc1[C@@H](NC(C)=O)CC2 [Compound 83] | 0
COC(=O)c1ccc2c(cc1=O)[C@@H](NC(C)=O)CCc1cc(OC)c(OC)c(OC)c1-2 [Compound 34] | 0
